- assay_target: Human recombinant GSK-3β (Homo sapiens, UniProt P49841)
- Construct: purchased Millipore (Millipore Iberica S.A.U.)
- Sequence (P49841 whole entry): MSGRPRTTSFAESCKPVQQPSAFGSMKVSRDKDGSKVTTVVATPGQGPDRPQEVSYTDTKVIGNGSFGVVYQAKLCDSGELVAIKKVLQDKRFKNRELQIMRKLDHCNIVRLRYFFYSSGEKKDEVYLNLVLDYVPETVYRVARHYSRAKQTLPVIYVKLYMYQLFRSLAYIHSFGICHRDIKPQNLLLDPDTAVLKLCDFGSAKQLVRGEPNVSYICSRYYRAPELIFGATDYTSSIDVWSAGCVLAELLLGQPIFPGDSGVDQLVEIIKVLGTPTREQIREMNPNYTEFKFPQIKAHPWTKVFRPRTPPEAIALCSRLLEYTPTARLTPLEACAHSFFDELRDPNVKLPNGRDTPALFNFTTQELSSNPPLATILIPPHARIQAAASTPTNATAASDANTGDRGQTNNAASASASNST
- test: GSK-3β inhibition in vitro assay (Kinase-Glo luminescence)
- Assay type: biochemical
- protocol_conditions: read-out: Gsk3β IC50
parameter_measured: IC50 (µM)
One number for each entry, in µM.

Take a look at these entries with their results.
compound="CCOC(=O)C1=C(C)N(CCC2CCN(Cc3ccccc3)CC2)C(=O)NC1c1ccc(OCCCCCCN2CCCCC2)cc1 (stereo not shown)" reported=68.2
compound="CCOC(=O)C1=C(C)N(CCC2CCN(Cc3ccccc3)CC2)C(=O)NC1c1ccc(OCCCCN2CCOCC2)cc1 (stereo not shown)" reported=126
compound="CCOC(=O)C1=C(C)N(CCC2CCN(Cc3ccccc3)CC2)C(=O)NC1c1ccc(OCCCCCN2CCCCC2)cc1 (stereo not shown)" reported=26.3

Shift focus to the following entry.
Name the recorded IC50 of the compound listed here: CCOC(=O)C1=C(C)N(CCC2CCN(Cc3ccccc3)CC2)C(=O)NC1c1ccc(OCCCCN2CCCC2)cc1 (stereo not shown) [BIGI-BIH-D1]
59.8

----------
For each entry below, report its IC50 value.
- assay_target: Human butyrylcholinesterase (hBuChE) (Homo sapiens)
- Construct: Human butyrylcholinesterase (hBuChE) isolated from human plasma was from Vivonics
- Sequence (P06276 29-602): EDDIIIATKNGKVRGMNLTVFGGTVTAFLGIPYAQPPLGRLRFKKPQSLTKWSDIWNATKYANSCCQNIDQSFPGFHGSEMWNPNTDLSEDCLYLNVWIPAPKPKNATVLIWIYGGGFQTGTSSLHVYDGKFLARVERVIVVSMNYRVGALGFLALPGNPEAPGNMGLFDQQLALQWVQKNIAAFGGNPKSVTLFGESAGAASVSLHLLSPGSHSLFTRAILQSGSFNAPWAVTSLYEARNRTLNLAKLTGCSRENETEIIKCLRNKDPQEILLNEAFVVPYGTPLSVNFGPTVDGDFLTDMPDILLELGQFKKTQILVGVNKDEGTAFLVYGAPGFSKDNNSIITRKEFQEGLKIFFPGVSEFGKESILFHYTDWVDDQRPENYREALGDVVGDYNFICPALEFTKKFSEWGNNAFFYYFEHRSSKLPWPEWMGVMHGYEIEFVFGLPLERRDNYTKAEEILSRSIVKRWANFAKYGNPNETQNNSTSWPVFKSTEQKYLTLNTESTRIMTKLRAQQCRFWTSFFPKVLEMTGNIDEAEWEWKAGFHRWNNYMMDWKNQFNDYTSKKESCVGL
- test: Cholinesterase inhibition assay (Ellman), hBuChE
Give bare numbers, in µM.

Give IC50 for each listed item.
1. CCOC(=O)C1=C(C)N(CCC2CCN(Cc3ccccc3)CC2)C(=O)NC1c1ccc(OCCCCN2CCCC2)cc1 (stereo not drawn) [BIGI-BIH-D1]
2. CCOC(=O)C1=C(C)N(CCC2CCN(Cc3ccccc3)CC2)C(=O)NC1c1ccc(OCCCCCCN2CCCCC2)cc1 (stereo not drawn)

1: 1.72; 2: 1.25

Give IC50 for each listed item.
1. CCOC(=O)C1=C(C)N(CCC2CCN(Cc3ccccc3)CC2)C(=O)NC1c1ccc(OCCCCCN2CCCCC2)cc1 (stereo not drawn)
2. CCOC(=O)C1=C(C)N(CCC2CCN(Cc3ccccc3)CC2)C(=O)NC1c1ccc(OCCCCCCN2CCCC2)cc1 (stereo not drawn)

1.28
0.768

Give IC50 for each listed item.
1. CCOC(=O)C1=C(C)N(CCC2CCN(Cc3ccccc3)CC2)C(=O)NC1c1ccc(OCCCCN2CCCCC2)cc1 (stereo not drawn) [BIGI-BIH-D2]
2. CCOC(=O)C1=C(C)N(CCC2CCN(Cc3ccccc3)CC2)C(=O)NC1c1ccc(OCCCCCN2CCCC2)cc1 (stereo not drawn)

1: 0.928; 2: 1.39

----------
For each entry below, report its IC50 value.
- assay_target: Human recombinant GSK-3β (Homo sapiens, UniProt P49841)
- Construct: purchased Millipore (Millipore Iberica S.A.U.)
- test: GSK-3β inhibition in vitro assay (Kinase-Glo luminescence)
- Assay type: biochemical
- Description: Human recombinant GSK-3β, prephosphorylated polypeptide substrate and white 96-well plates were purchased from Millipore (Millipore Iberica S.A.U.). Kinase-Glo Luminescent Kinase Assay was obtained from Promega (Promega Biotech Iberica, SL). […] Glow-type luminescence was recorded after 10 min using a VictorX 3 PerkinElmer plate reader. […] The linear regression parameters were determined and the IC50 extrapolated (GraphPad Prism 4.0, GraphPad Software Inc.).
Give bare numbers, in µM.

Give IC50 for each listed item.
1. CCOC(=O)C1=C(C)N(CCC2CCN(Cc3ccccc3)CC2)C(=O)NC1c1ccc(OCCCCCCN2CCOCC2)cc1 (centres unmarked) [BIGI-BIH-D9]
2. CCOC(=O)C1=C(C)N(CCC2CCN(Cc3ccccc3)CC2)C(=O)NC1c1ccc(OCCCCCN2CCCC2)cc1 (centres unmarked) [BIGI-BIH-D4]

[38.6, 60.5]
